B1: TPR t1 (parent)
chain: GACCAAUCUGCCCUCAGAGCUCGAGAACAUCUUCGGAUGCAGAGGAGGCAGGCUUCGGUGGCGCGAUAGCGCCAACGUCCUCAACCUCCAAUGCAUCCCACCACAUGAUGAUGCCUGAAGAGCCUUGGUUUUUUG

Variants of: B1
Assay: polymerase ribozyme fitness, log enrichment relative to wild type (log ratio); higher = more active; in vitro selection for triplet polymerase activity
Quick rule: polymerase ribozyme fitness (log ratio) of at least -3 means criterion met, below that means criterion not met.

Please review the entries below; each comes with its answer.
mutation="U9G A37U A43U C73A C98A C124A" assigned_label="criterion not met"
mutation="C20A U132A" assigned_label="criterion met"

Attention now turns to another entry.
Req: For this variant, is measured polymerase ribozyme fitness (log ratio) -3 or higher? A6C C15U
Resp: criterion met
